Test system: NQO1 specific enzyme activity in BEAS-2B cells
Test: BEAS-2B NQO1 MTT assay
Format: cell-based
Details: Homo sapiens, BEAS-2B, 48 h, BEAS-2B cells, 48 hours with compound, MTT readout; read-out: EC50 of NQO1 specific activity induction
pEC50: −log10 of the molar value. Where a name gives a salt, the structure may show the parent alone.
valueKind: pEC50

Here's what some known entries look like.
CC[C@@H]1CN(Cc2cc(C(c3ccc4c(nnn4C)c3C)C(C)(C)C(=O)O)ccc2C)Cc2cccc(F)c2O1 (stereo partly shown) [Example 34, formic acid salt] : 6.00 to 7.00
Cc1ccc([C@H](c2ccc3c(nnn3C)c2C)C(C)(C)C(=O)O)cc1Cc1cnnn1CC1CCCCCC1 (single isomer, unassigned) [Example 242] : 7.00 to 8.00
CC[C@@H]1CN(Cc2cc([C@H](c3ccc4c(nnn4C)c3C)C(C)(C)C(=O)O)ccc2C)Cc2cnccc2O1 [Example 204] : 6.00 to 7.00
CC[C@@H]1CN(Cc2cc([C@H](CC(=O)O)c3ccc4c(nnn4C)c3C)ccc2C)Cc2ccccc2O1 [Example 49, Formic Acid Salt] : 6.00 to 7.00
CC[C@@H]1CN(Cc2cc([C@@H](CC(=O)O)c3ccc4c(nnn4C)c3C)ccc2C)Cc2ccccc2O1 [Example 51, formic acid salt] : 6.00 to 7.00

Ask: Fill in the blank: the reported pEC50 of CC[C@@H]1CN(Cc2cc([C@@H](c3ccc4c(nnn4C)c3C)C(C)(C)C(=O)N3CCSC3=O)ccc2C)Cc2cnccc2O1 [Example 256, Trifluoroacetic Acid Salt] is ____.
Result: 7.00 to 8.00

Ask: Next compound: Cc1ccc([C@@H](c2ccc3c(nnn3C)c2C)C(C)(C)C(=O)O)cc1CN1CCC[C@H](n2cccn2)C1 [Example 183]
Result: 7.00 to 8.00

###

Test system: NQO1 specific enzyme activity in BEAS-2B cells
Assay: BEAS-2B NQO1 MTT assay
Assay type: cell-based
Conditions: Homo sapiens, BEAS-2B, 48 h, BEAS-2B cells, 48 hours with compound, MTT readout; read-out: EC50 of NQO1 specific activity induction
pEC50: −log10 of the molar value. Structures can show the parent of a compound that is named as a salt.
valueKind: pEC50

Check out these entries, answers already filled in.
Cc1ccc(C(c2ccc3c(nnn3C)c2C)C(C)(C)C(=O)O)cc1Cn1ccnc1CN1CCO[C@H](C)C1 (stereo partly shown) [Example 144, trifluoroacetic acid salt] : 6.00 to 7.00
CCn1nnc2c(C)c([C@H](c3ccc(C)c(CN4Cc5ccccc5OC(C)(C)C4)c3)C(C)(C)C(=O)O)ccc21 (single isomer, unassigned; enantiomer b) [Example 207] : 7.00 to 8.00
Cc1ccc(C(CC(=O)O)c2ccc3c(nnn3C)c2C)cc1Cn1cnc(CC2CCCCC2)c1 (stereo not shown) [Example 136] : 7.00 to 8.00
Cc1ccc(C(CC(=O)O)c2ccc3c(nnn3C)c2C)cc1CN1Cc2ccccc2OC2(CCC2)C1 (stereo not shown) [Example 244] : 7.00 to 8.00
Cc1ccc(C(CC(=O)O)c2ccc3c(nnn3C)c2C)cc1CN1Cc2ccccc2O[C@@H](C)C1 (stereo partly shown) [Example 98, Formic Acid Salt] : 6.00 to 7.00
COc1ccc(CN(Cc2cc(C(CC(=O)O)c3ccc4c(nnn4C)c3C)ccc2C)C2CC2)cc1 (stereo not shown) [Example 20, formic acid salt] : 6.00 to 7.00
CC[C@@H]1CN(Cc2cc(C(CC(=O)O)c3ccc4c(nnn4CC)c3F)ccc2C)Cc2ccccc2O1 (single isomer, unassigned) [Example 181] : 7.00 to 8.00
Cc1ccc(C(c2ccc3c(nnn3C)c2C)C(C)(C)C(=O)O)cc1Cn1ccnc1CC1CCCCCC1 (stereo not shown) [Example 131] : 6.00 to 7.00
COc1ccc2c(c1)OC(C)(C)CN(Cc1cc([C@@H](CC(=O)O)c3ccc4c(nnn4C)c3C)ccc1C)C2 [Example 167] : 7.00 to 8.00
Cc1ccc(C(c2ccc3c(nnn3C)c2C)C(C)(C)C(=O)O)cc1CN1CCCc2ccccc2C1 (stereo not shown) [Example 104] : 8.00 to 9.00

Ask: Look up pEC50: Cc1ccc(C(CC(=O)O)c2ccc3c(nnn3C)c2C)cc1CN1Cc2ccccc2CC(C)(C)C1 (stereo not shown) [Example 105]
Result: 7.00 to 8.00

Ask: What would you report for Cc1ccc([C@@H](CC(=O)O)c2ccc3c(nnn3C)c2C)cc1CN1Cc2ccccc2OC(C)(C)C1 [Example 110, Formic Acid Salt] ?
Result: > 9.00

Ask: Please do the same for CC[C@@H]1CN(Cc2cc(C(CC(=O)O)c3ccc4c(nnn4C)c3C)ccc2C)Cc2c(F)cccc2O1 (stereo partly shown) [Example 83] as well.
Result: 6.00 to 7.00

Ask: Check COc1ccc2c(c1)OC(C)(C)CN(Cc1cc([C@H](CC(=O)O)c3ccc4c(nnn4C)c3C)ccc1C)C2 [Example 168] too.
Result: 7.00 to 8.00

Ask: And the next one, Cc1ccc([C@@H](c2ccc3c(nnn3C)c2C)C(C)(C)C(=O)O)cc1CN1CCC[C@@H](n2cccn2)C1 [compound 184] ?
Result: 6.00 to 7.00

Ask: Request: CCn1cc(CCC(c2ccc(C)c(CN3Cc4cnccc4OC(C)(C)C3)c2)C(C)C(=O)O)nn1 (single isomer, unassigned) [Example 227, Trifluoroacetic acid salt]
Result: 6.00 to 7.00
